molecular target: norepinephrine transporter (NET) (Rattus norvegicus); assay: Norepinephrine reuptake ([^3H]norepinephrine uptake) inhibition in rat brain synaptosomes; details: read-out: NE Uptake EC50 (nM ± SD); rat brain synaptosomes; 10 nM [^3H]norepinephrine; 10 min, 37° C.
PARAMETER: IC50 (nM)
Give just the number in nM; leave the unit off.

Examples with their reported IC50 follow.
{"MOLECULE": "c1ccc(C(CNc2nc(-c3cnc4nccn4c3)nc3ccccc23)C2CCCCC2)cc1 (stereo not shown)", "IC50 / nM": 95}
{"MOLECULE": "c1ccc(C(CNc2nc(-c3ccc4nccn4c3)nc3ccccc23)c2cccnc2)cc1 (stereo not shown)", "IC50 / nM": 78}
{"MOLECULE": "c1ccc(C(CNc2nc(-c3cnc4nccn4c3)nc3ccccc23)c2ccccn2)cc1 (stereo not shown)", "IC50 / nM": 132}

query: Can you look up the measured IC50 of `CN(C)c1ncc(-c2nc(NCCC(c3ccccc3)c3ccccc3)c3ccccc3n2)cn1` for me?
result: 8130

* * *

biological target: dopamine transporter (DAT) (Rattus norvegicus, UniProt P23977); test: Dopamine reuptake ([^3H]dopamine uptake) inhibition in rat brain synaptosomes; details: DAT Uptake IC50, [3H]DA uptake inhibition; mean ± S.D., n = 3
Sequence (P23977 whole entry): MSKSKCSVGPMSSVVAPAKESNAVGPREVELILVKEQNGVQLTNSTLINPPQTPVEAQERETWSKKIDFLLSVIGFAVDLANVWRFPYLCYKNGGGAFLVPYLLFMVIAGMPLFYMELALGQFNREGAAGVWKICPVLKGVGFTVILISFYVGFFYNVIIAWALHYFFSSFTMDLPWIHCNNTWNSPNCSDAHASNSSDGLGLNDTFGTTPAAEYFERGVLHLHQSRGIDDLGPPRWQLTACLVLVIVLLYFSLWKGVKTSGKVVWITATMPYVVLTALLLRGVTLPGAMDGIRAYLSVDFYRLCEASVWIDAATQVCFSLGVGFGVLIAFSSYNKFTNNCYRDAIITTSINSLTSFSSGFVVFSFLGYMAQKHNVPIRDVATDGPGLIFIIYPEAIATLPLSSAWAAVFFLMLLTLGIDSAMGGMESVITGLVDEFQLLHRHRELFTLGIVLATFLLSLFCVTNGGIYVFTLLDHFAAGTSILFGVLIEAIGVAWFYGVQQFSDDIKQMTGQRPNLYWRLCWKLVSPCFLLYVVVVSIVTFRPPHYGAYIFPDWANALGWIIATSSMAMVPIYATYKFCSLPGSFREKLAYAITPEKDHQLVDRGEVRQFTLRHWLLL
The reader will find reported pIC50 values listed item by item below.
The value called pIC50 is obtained by taking minus log10 of the concentration in mol/L.

{"COMPOUND": "CN(C)c1ncc(-c2nc(NCC(c3ccccc3)c3ccccc3)c3ccccc3n2)cn1", "PARAMETER": "pIC50", "REPORTED": 7.70}
{"COMPOUND": "c1ccc(C(CNc2nc(-c3ccc4[nH]ccc4c3)nc3ccccc23)c2ccccc2)cc1", "PARAMETER": "pIC50", "REPORTED": 8.00}
{"COMPOUND": "Cl.Fc1ccc2c(NCC(c3ccccc3)c3ccccc3)nc(-c3ccc4nccn4c3)nc2c1 [compound 124, Hydrochloride]", "PARAMETER": "pIC50", "REPORTED": 8.13}
{"COMPOUND": "CN(C)c1ccc(-c2nc(NCC(c3ccccc3)c3ccccc3)c3ccccc3n2)cn1", "PARAMETER": "pIC50", "REPORTED": 8.14}

query: I'd like to know its pIC50. The compound in question is Cc1cc(NS(C)(=O)=O)ccc1-c1nc(NCC(c2ccccc2)c2ccncc2)c2ccccc2n1 (centres unmarked)
result: 8.13

query: Give the measured pIC50 of `Cn1cc2cc(-c3nc(NCC(c4ccccc4)c4ccccc4)c4ccccc4n3)ccc2n1` .
result: 7.72

query: Which pIC50 value is on record for c1ccc(C(CNc2nc(-c3ccc4nccn4c3)nc3ccccc23)C2CCCCC2)cc1 (centres unmarked) ?
result: 7.92

query: What value of measured pIC50 is listed for `CS(=O)(=O)Nc1ccc(-c2nc(NCC(c3ccccc3)c3ccccc3)c3ccccc3n2)c(Cl)c1` ?
result: 7.96

* * *

A collection of compounds and their measured IC50
biological target: dopamine transporter (DAT) (Rattus norvegicus); assay: Dopamine reuptake ([^3H]dopamine uptake) inhibition in rat brain synaptosomes; details: DA Uptake EC50 (nM ± SD), rat caudate synaptosomes; 5 nM [^3H]dopamine; 15 min, 25° C.; three experiments pooled
Numeric answer only, unit nM assumed.

{"SMILES_TEXT": "CN(C)c1ccc(-c2nc(NCCC(c3ccccc3)c3ccccc3)c3ccccc3n2)cn1", "REPORTED": 29}
{"SMILES_TEXT": "c1ccc(C(Nc2nc(N3CCCCC3)nc3ccccc23)c2ccccc2)cc1", "REPORTED": 150}
{"SMILES_TEXT": "c1ccc(C(CNc2nc(-c3cccc4[nH]ccc34)nc3ccccc23)c2ccccc2)cc1", "REPORTED": 189}
{"SMILES_TEXT": "CC(C)(C)OC(=O)N1CCCc2ccc(-c3nc(NCC(c4ccccc4)c4ccccc4)c4ccccc4n3)cc21", "REPORTED": 890}

query: Would you kindly share the measured IC50 for `CS(=O)(=O)Nc1ncc(-c2nc(NCC(c3ccccc3)c3ccccc3)c3ccccc3n2)cn1` ?
result: 205

query: Find the recorded IC50 belonging to `Cc1ccc(-c2nc(NCC(c3ccccc3)c3ccccc3)c3ccccc3n2)c2nccn12` and report it.
result: 208

query: // query IC50 value for entry `c1ccc(C(CNc2nc(-c3ccc4nccnc4c3)nc3ccccc23)c2ccccc2)cc1`
result: 89

query: I would be grateful if you could share the reported IC50 for `c1ccc(C(Nc2nc(-c3cncnc3)nc3ccccc23)c2ccccc2)cc1` .
result: 234

* * *

target: dopamine transporter (DAT) (Rattus norvegicus, UniProt P23977); assay: Dopamine reuptake ([^3H]dopamine uptake) inhibition in rat brain synaptosomes; settings: DA Uptake EC50 (nM ± SD), rat caudate synaptosomes; 5 nM [^3H]dopamine; 15 min, 25° C.; three experiments pooled
Quick rule for you: IC50 under 100 nM gets t, anything else gets f.

Check out these entries, answers already filled in.
{"MOLECULE": "c1ccc(C(CNc2nc(-c3c[nH]c4ccccc34)nc3ccccc23)c2ccccc2)cc1 [compound 82]", "CATEGORY_LABEL": "f"}
{"MOLECULE": "c1ccc(C(CNc2nc(-c3ccc4[nH]ncc4c3)nc3ccccc23)c2ccccc2)cc1 [compound 40]", "CATEGORY_LABEL": "f"}
{"MOLECULE": "CS(=O)(=O)Nc1ccc(-c2nc(NCC(c3ccccc3)c3ccccc3)c3ccccc3n2)cn1 [compound 138]", "CATEGORY_LABEL": "t"}
{"MOLECULE": "CC(C)(C)OC(=O)N[C@H](CNc1nc(-c2ccc3nccn3c2)nc2ccccc12)c1ccccc1 [compound 146]", "CATEGORY_LABEL": "f"}

query: State whether 100 nM exceeds IC50 recorded for c1ccc2c(NCC(c3ccncc3)c3ccncc3)nc(N3CCc4[nH]ccc4C3)nc2c1 [compound 174] .
result: t

query: # TODO verify IC50 < 100 nM strictly for this molecule: c1ccc(C(CNc2nc(-c3cccc4cccnc34)nc3ccccc23)c2ccccc2)cc1 [compound 141]
result: t

query: Just wondering, is IC50 of Cc1cc2nccn2cc1-c1nc(NCCc2cccnc2)c2ccccc2n1 [compound 180] below 100 nM?
result: f

query: Just wondering, is IC50 of c1ccc(C(CNc2nc(-c3ccc4cn[nH]c4c3)nc3ccccc23)c2ccccc2)cc1 [compound 34] below 100 nM?
result: f

* * *

target: dopamine transporter (DAT) (Rattus norvegicus, UniProt P23977); experiment: Dopamine reuptake ([^3H]dopamine uptake) inhibition in rat brain synaptosomes; conditions: DA Uptake EC50 (nM ± SD), rat caudate synaptosomes; 5 nM [^3H]dopamine; 15 min, 25° C.; three experiments pooled
PARAMETER: IC50
Note to self: number, then unit, no commentary.

{"MOLECULE": "Cc1cc2nccn2cc1-c1nc(NCC(Oc2ccccc2)c2ccccc2)c2ccccc2n1 (stereo not drawn)", "STUDY_TARGET": "dopamine transporter (DAT) (Rattus norvegicus, UniProt P23977)", "IC50": "2.3 nM"}

Now consider a different molecule.
query: Endpoint output: IC50 of `Cc1nc2ccc(-c3nc(NCC(c4ccccc4)c4ccccc4)c4ccccc4n3)cn2c1C` . Value?
result: 25 nM

* * *

target: dopamine transporter (DAT) (Rattus norvegicus, UniProt P23977); assay: Dopamine reuptake ([^3H]dopamine uptake) inhibition in rat brain synaptosomes; details: read-out: DA Uptake Emax (% I ± SD)
Mark True for reported Emax of 80% or greater; mark False for anything smaller.

Here are 3 compounds together with their reported answers.
{"COMPOUND": "CN(C)c1ccc(-c2nc(NCCC(c3ccccc3)c3ccccc3)c3ccccc3n2)cn1", "CATEGORY_LABEL": "False"}
{"COMPOUND": "COc1ccc(C(CNc2nc(-c3ccc4nccn4c3)nc3ccccc23)C2(O)CCCCC2)cc1 (centres unmarked)", "CATEGORY_LABEL": "False"}
{"COMPOUND": "Nc1ccc(-c2nc(NCC(c3ccccc3)c3ccccc3)c3ccccc3n2)cn1", "CATEGORY_LABEL": "True"}

query: Hello, I need to know if `c1ccc(C(CNc2nc(N3CCc4[nH]ccc4C3)nc3ccccc23)c2ccccc2)cc1` has measured Emax not below 80%. Thanks!
result: True

query: Is the recorded value of Emax equal to or greater than 80% for this compound? `Cc1cc2nccn2cc1-c1nc(NCC(Cc2ccccc2)Cc2ccccc2)c2ccccc2n1`
result: False

* * *

Property: melting point; scope: individual compounds
# value in °C; strip the unit string

{"COMPOUND": "c1ccc(C(CNc2nc(-c3cccc4[nH]ccc34)nc3ccccc23)c2ccccc2)cc1", "melting point [°C]": 100}
{"COMPOUND": "c1ccc(C(CNc2nc(-c3ccc4nccn4c3)nc3ccccc23)c2ccccn2)cc1 (stereo not shown)", "melting point [°C]": 238}

Let's switch to this compound now.
query: For the compound shown here, `c1ccc(C(CNc2nc(-c3ccc4[nH]ncc4c3)nc3ccccc23)c2ccccc2)cc1` , give the reported melting point.
result: 191
